- Test system: NCI-H226 lung
- assayMethodText: NCI tumour cell line growth inhibition, 48 h
resultType: TGI

# molecule, testedSystem, resultType, recordedValue
records = [
    ("O=C1NC(=S)NC1C(Cc1ccccc1)c1ccco1 (stereo unspecified)", "NCI-H226 lung", "TGI", "> 100 µM"),
    ("Cc1nn(C(=O)c2ccc(Cl)cc2)c2c1C(c1ccccc1)SC(N)=N2 (stereo unspecified)", "NCI-H226 lung", "TGI", "> 10 µM"),
    ("O=C(CSc1nc(-c2ccccc2)c(-c2ccccc2)[nH]1)N/N=C/c1ccc([N+](=O)[O-])cc1", "NCI-H226 lung", "TGI", "32.8 µM"),
    ("CN1C(=O)CNS1(=O)=O", "NCI-H226 lung", "TGI", "> 100 µM"),
    ("O=C1CNC(=O)N1", "NCI-H226 lung", "TGI", "> 1120 µM"),
    ("Fc1cc(C2=Nn3c(nnc3-c3cc(F)c(Cl)cc3Cl)SC2)c(Cl)cc1Cl", "NCI-H226 lung", "TGI", "36 µM"),
]

* * *

- Tested on: OVCAR-4 ovarian
- assayMethodText: NCI tumour cell line growth inhibition, 48 h
// reported TGI per item

# molecule, TGI
data = [
    ("c1ccc2c(CNCCCN3CCN(CCCNCc4cccc5ccccc45)CC3)cccc2c1", "5 µM"),
    ("NS(=O)(=O)c1ccc(N=Nc2c(O)[nH]c3cccc(CCc4ccncc4)c23)cc1", "> 25 µM"),
    ("Cc1ccc(C2=NN=C3C(c4ccccc4)=Nc4ccccc4N3C2)cc1", "21.8 µM"),
    ("CC[n+]1c(/C=C/c2ccc(N3CCCC3)cc2)cccc1/C=C/c1ccc(N2CCCC2)cc1", "1.29 µM"),
    ("COc1cc(C)cc(C(=O)OCc2ccccc2)c1C1=C(Cl)C(=O)C(Cl)=CC1=O", "> 9 µM"),
    ("O=P1(O)c2ccccc2CSCc2ccccc21", "> 100 µM"),
    ("O=[N+]([O-])c1cccc(C=NC23CC4CC(CC(C4)C2)C3)c1", "> 100 µM"),
    ("Oc1c(Nc2ccccc2)cc2c3c1N=NC=3CCN=2", "> 100 µM"),
    ("COC(=O)CCC(=O)C(CC(=O)OC)C(=O)CCC(=O)NCCc1ccccc1 (stereo unspecified)", "> 100 µM"),
    ("CC(=O)OC1C(COC(N)=O)OC(n2c(-c3ccc(C)cc3)cc(-c3ccccc3)c(C#N)c2=O)C(OC(C)=O)C1OC(C)=O (stereo unspecified)", "> 100 µM"),
    ("CCNc1nc2c(=O)n(C)c(=O)n(C)c2s1", "> 100 µM"),
]

* * *

// reported TGI per item
- Test system: NCI/ADR-RES ovarian
- assayMethodText: NCI tumour cell line growth inhibition, 48 h
resultType: TGI

# molecule, recordedValue
rows = [
    ("COc1cc(Br)cc2c1O[C@H]1C(=O)CC3CC21CCN3C (stereo not given in full)", "> 100 µM"),
    ("Cc1ccc2[nH]c3c(C)c4cc[n+](C)cc4c(C)c3c2c1", "> 100 µM"),
    ("COc1ccc2c(c1)C(=O)/C(=C/c1ccccc1)C2", "88.2 µM"),
    ("O=C(O)c1ccc(NCn2nc(-c3ccccc3O)oc2=S)cc1O", "> 100 µM"),
    ("CCN1C2=C(SC(=S)C1=C1SC(C(=O)c3ccccc3)=C(C(=O)c3ccccc3)S1)SC(=Nc1ccccc1)C2=O", "> 100 µM"),
]

Each recorded value in this set is attributed to PubChem BioAssay (NCI).
